Molecular target: hGHQ141N, P01241
Sequence (P01241 27-217 Q167N): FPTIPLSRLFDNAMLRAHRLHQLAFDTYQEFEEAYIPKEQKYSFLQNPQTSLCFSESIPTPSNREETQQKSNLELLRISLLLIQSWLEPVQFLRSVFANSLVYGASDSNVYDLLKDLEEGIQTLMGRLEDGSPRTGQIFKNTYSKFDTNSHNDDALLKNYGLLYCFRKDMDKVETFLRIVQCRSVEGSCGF
result type: Activity towards hGHQ141N (RFU/sec/µg)

Asked: Would you kindly share the measured Activity towards hGHQ141N (RFU/sec/µg) for mTGase from Streptomyces mobaraensis (protein) DSDDRVTPPAEPLDRMPDPYRPSYGRAETVVNNYIRKWQQVYSHRDGRKQQMTEEQREWLSYGCVGVTWVNSGQYPTNRLAFASFDEDRFKNELKNGRPRSGETRAEFEGRVAKESFDEEKGFQRAREVASVMNRALENAHDESAYLDNLKKELANGNDALRNEDARSPFYSALRNTPSFKERNGGNHDPSRMKAVIYSKHFWSGQDRSSSADKRKYGDPDAFRPAPGTGLVDMSRDRNIPRSPTSPGEGFVNFDYGWFGAQTEADADKTVWTHGNHYHAPNGSLGAMHVYESKFRNWSEGYSDFDRGAYVITFIPKSWNTAPDKVKQGWP ?
Given back: 0.98 RFU/sec/µg

More entries:
Asked: Would you kindly share the measured Activity towards hGHQ141N (RFU/sec/µg) for Met-mTGase from S. mobaraensis (protein) MDSDDRVTPPAEPLDRMPDPYRPSYGRAETVVNNYIRKWQQVYSHRDGRKQQMTEEQREWLSYGCVGVTWVNSGQYPTNRLAFASFDEDRFKNELKNGRPRSGETRAEFEGRVAKESFDEEKGFQRAREVASVMNRALENAHDESAYLDNLKKELANGNDALRNEDARSPFYSALRNTPSFKERNGGNHDPSRMKAVIYSKHFWSGQDRSSSADKRKYGDPDAFRPAPGTGLVDMSRDRNIPRSPTSPGEGFVNFDYGWFGAQTEADADKTVWTHGNHYHAPNGSLGAMHVYESKFRNWSEGYSDFDRGAYVITFIPKSWNTAPDKVKQGWP ?
Given back: 1.24 RFU/sec/µg
